Measured values drawn from the supplement of paper PMC7125110 for this set.

B1: glmS ribozyme (parent)
chain: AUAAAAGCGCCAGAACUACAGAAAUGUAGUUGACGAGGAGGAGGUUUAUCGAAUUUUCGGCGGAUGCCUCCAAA

- Variants of: B1
- protocolDescription: self-cleavage kobs at 10000 uM GlcN6P; higher = faster cleavage; RNA array
- statedConditions: with glucosamine-6-phosphate
Fewer inactive variants are shown than the library holds.
MET means recorded self-cleavage kobs at 10000 uM GlcN6P is 0.0001 s⁻¹ or above; NOT MET means it is below 0.0001 s⁻¹.

mutationDescriptor: A36C G41A C68A
className: NOT MET

mutationDescriptor: G7U G59U
className: NOT MET

mutationDescriptor: G41A A64C
className: NOT MET

mutationDescriptor: A48U C61A C67U
className: NOT MET

mutationDescriptor: A15C C67G
className: MET

mutationDescriptor: U30G A39G G41U A48G U69C
className: NOT MET

mutationDescriptor: C34A C50G C71U
className: NOT MET

mutationDescriptor: A42C C61U C68U
className: NOT MET

mutationDescriptor: A23C C68A
className: NOT MET

mutationDescriptor: A12U G13A
className: MET

mutationDescriptor: U49A G51A U57A C58G
className: NOT MET

mutationDescriptor: G13A G59C
className: NOT MET

mutationDescriptor: A6C G66A
className: NOT MET

mutationDescriptor: C10G G13A G41C C50U C67A
className: NOT MET

mutationDescriptor: A12U U65A C67A
className: MET

mutationDescriptor: G7A G35A A36G
className: NOT MET

mutationDescriptor: G13A A15C
className: MET

mutationDescriptor: A12C C67A
className: MET

mutationDescriptor: A39C U46G
className: MET

mutationDescriptor: G44A G59C
className: NOT MET

mutationDescriptor: C58A A64U
className: NOT MET
